test: Serum compound levels in ovariectomized rats; type: in vivo; conditions: female, rat, 30 mg/kg per oral, read-out: serum compound level
assay.endpoint: concentration at 6 h (nM)
Numeric answer only, unit nM assumed.

Record O=C(NCc1ncccc1Cl)c1ccc2c(c1)C1(CCS(=O)(=O)CC1)C(C1CC1)N2S(=O)(=O)c1ccc(F)cc1 (single isomer, unassigned) . Reported concentration at 6 h: 1840

###

target: human GnRH receptor (Homo sapiens, UniProt P30968); test: IP-One HTRF assay with buserelin (at EC80) stimulation; conditions: CHO cells stably expressing human GnRH receptor, read-out: Potency in IP-One HTRF assay, given as IC50
Sequence (P30968 whole entry): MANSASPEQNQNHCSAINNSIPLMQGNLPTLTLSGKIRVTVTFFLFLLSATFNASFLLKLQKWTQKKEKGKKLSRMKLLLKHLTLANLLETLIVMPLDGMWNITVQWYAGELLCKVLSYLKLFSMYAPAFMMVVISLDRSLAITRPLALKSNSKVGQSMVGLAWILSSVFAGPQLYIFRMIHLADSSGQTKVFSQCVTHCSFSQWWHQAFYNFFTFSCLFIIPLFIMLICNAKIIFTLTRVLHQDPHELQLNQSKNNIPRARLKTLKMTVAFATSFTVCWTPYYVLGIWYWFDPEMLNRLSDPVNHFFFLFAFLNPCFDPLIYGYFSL
pIC50: −log10 of the molar value.
Outcome: 1.0 for pIC50 of at least 7; 0.0 for anything lower.

- CC(C)(NC(=O)c1ccc2c(c1)C1(CCS(=O)(=O)CC1)C(C1CC1)N2S(=O)(=O)c1ccc(F)cc1)c1ccc(F)cc1 (stereo not drawn) [Example 20]: 0.0

Could you verify whether the entry O=C(NCc1ccc(F)cc1Cl)c1ccc2c(c1)C1(CCS(=O)(=O)CC1)C(C1CC1)N2S(=O)(=O)c1ccc(F)cc1 (single isomer, unassigned) [Example 16.2] shows pIC50 of no less than 7? 0.0

Threshold query (pIC50 >= 7) on COC(=O)c1cccc(NC(=O)c2ccc3c(c2)C2(CCS(=O)(=O)CC2)C(C2CC2)N3S(=O)(=O)c2ccc(F)cc2)c1 (single isomer, unassigned) [Example 34.1] 1.0

Threshold query (pIC50 >= 7) on O=C(NCc1ncc(F)cc1Cl)c1ccc2c(c1)C1(CCS(=O)(=O)CC1)C(C1CC1)N2S(=O)(=O)c1ccc(F)cc1 (stereo not drawn) [Example 17] 0.0
